tested on: KB-3.1 cancer cells; assay: Cell proliferation assay under folate free conditions (MTT); assay type: cell-based, human; conditions: KB-3.1, folate receptor-positive; read-out: Antiproliferative activity IC50 of folate-ratjadone conjugates
experimental-endpoint: pIC50
Remember, pIC50 is on a log scale: it is -log10 of the molar concentration.

Here's what some known entries look like.
**Query** What value of measured pIC50 is listed for C/C=C/[C@@H]1O[C@H]([C@@H](/C=C/C=C(\C)C[C@@H](C)/C=C(C)\C=C\[C@H]2CC=CC(=O)O2)NC(=O)OCc2ccc(NC(=O)[C@H](CCCNC(N)=O)NC(=O)[C@@H](NC(=O)OC[C@@H]3[C@@H]4CCc5nnn(CCC[C@H](NC(=O)CC[C@H](NC(=O)c6ccc(NCc7cnc8nc(N)nc(O)c8n7)cc6)C(=O)O)C(=O)N[C@H](CCCCN)C(=O)O)c5CC[C@@H]43)C(C)C)cc2)C[C@@H](O)[C@@H]1C [FA-9-Val-Cit-pABA-16R-aminoratjadone] ?
**Result** 7.29

**Query** What value of measured pIC50 is listed for C/C=C/[C@@H]1O[C@H]([C@@H](/C=C/C=C(\C)C[C@@H](C)/C=C(C)\C=C\[C@H]2CC=CC(=O)O2)NC(=O)OCc2ccc(NC(=O)[C@H](CCCNC(N)=O)NC(=O)[C@@H](NC(=O)OCC3C4CCc5nnn(-c6ccc(C(=O)NCCCC[C@H](NC(=O)CC[C@H](NC(=O)CC[C@H](NC(=O)c7ccc(NCc8cnc9nc(N)[nH]c(=O)c9n8)cc7)C(=O)O)C(=O)O)C(=O)OC)cc6)c5CCC43)C(C)C)cc2)C[C@@H](O)[C@@H]1C (stereo partly drawn) [FA-1-Val-Cit-pABA-16R-aminoratjadone] ?
**Result** 6.77

**Query** What value of measured pIC50 is listed for C/C=C/[C@@H]1O[C@H]([C@@H](/C=C/C=C(\C)C[C@@H](C)/C=C(C)\C=C\[C@H]2CC=CC(=O)O2)NC(=O)OCc2ccc(NC(=O)[C@H](CCCNC(N)=O)NC(=O)[C@@H](NC(=O)OC[C@@H]3[C@@H]4CCc5nnn(-c6ccc(C(=O)NCCCC[C@H](NC(=O)CC[C@H](NC(=O)CC[C@H](NC(=O)c7ccc(NCc8cnc9nc(N)nc(O)c9n8)cc7)C(=O)O)C(=O)O)C(=O)O)cc6)c5CC[C@@H]43)C(C)C)cc2)C[C@@H](O)[C@@H]1C [FA-6-Val-Cit-pABA-16R-aminoratjadone] ?
**Result** 6.65

Continuing:
**Query** What value of measured pIC50 is listed for C/C=C/[C@@H]1O[C@H]([C@@H](/C=C/C=C(\C)C[C@@H](C)/C=C(C)\C=C\[C@H]2CC=CC(=O)O2)NC(=O)OCCc2cn(-c3ccc(C(=O)NCCCC[C@H](NC(=O)CC[C@H](NC(=O)CC[C@H](NC(=O)c4ccc(NCc5cnc6nc(N)nc(O)c6n5)cc4)C(=O)O)C(=O)O)C(=O)O)cc3)nn2)C[C@@H](O)[C@@H]1C [FA-6-L-16R-aminoratjadone] ?
**Result** 6.82

**Query** What value of measured pIC50 is listed for C/C=C/[C@@H]1O[C@H]([C@@H](/C=C/C=C(\C)C[C@@H](C)/C=C(C)\C=C\[C@H]2CC=CC(=O)O2)NC(=O)OCCc2cn(-c3ccc(C(=O)NCCCC[C@H](NC(=O)CC[C@H](NC(=O)c4ccc(NCc5cnc6nc(N)[nH]c(=O)c6n5)cc4)C(=O)O)C(=O)N[C@@H](CCCCN)C(=O)O)cc3)nn2)C[C@@H](O)[C@@H]1C [FA-8-L-16R-aminoratjadone] ?
**Result** 6.89
